tested on: M. tuberculosis H37Rv growth inhibition, 7H9 media; assay: M. tuberculosis growth inhibition, HTS (AID 449762); details: measured here: IC90 growth inhibition;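 note: bacterial growth assessed after seven days of incubation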
Results filed as inconclusive are left out.
The entries below come with measured log10 of IC90 values attached.
measured endpoint: log10 of IC90 (log10 of the value in µM)

molecule: N=c1n(Cc2ccc(Cl)cc2)c2ccccc2n1CC(O)COc1ccccc1 (centres undefined)
tested target: M. tuberculosis H37Rv growth inhibition, 7H9 media
log10 of IC90: 1.41
//
molecule: C[n+]1c(-c2ccccc2)cc(CCCCc2cc(-c3ccccc3)[n+](C)c(-c3ccccc3)c2)cc1-c1ccccc1
tested target: M. tuberculosis H37Rv growth inhibition, 7H9 media
log10 of IC90: 1.34
//
molecule: CC(=O)/C=C(\C)Nc1ccccc1O
tested target: M. tuberculosis H37Rv growth inhibition, 7H9 media
log10 of IC90: 0.79
//
molecule: COC(=O)CSc1ncnc2c1cnn2-c1ccc(C)cc1C
tested target: M. tuberculosis H37Rv growth inhibition, 7H9 media
log10 of IC90: 0.90
//
molecule: S=C(NCCN1CCOCC1)N/N=C/c1cccs1
tested target: M. tuberculosis H37Rv growth inhibition, 7H9 media
log10 of IC90: 0.79
//
molecule: O=C(Nc1cc(C(F)(F)F)ccc1Cl)C(Sc1cccc[n+]1[O-])c1ccccc1 (centres undefined)
tested target: M. tuberculosis H37Rv growth inhibition, 7H9 media
log10 of IC90: 1.68
//
molecule: Cc1ccc(NC(=O)c2sccc2-n2cccc2)c(C)c1
tested target: M. tuberculosis H37Rv growth inhibition, 7H9 media
log10 of IC90: 1.92
//
molecule: O=C1C(=O)c2ccccc2-c2ccccc21
tested target: M. tuberculosis H37Rv growth inhibition, 7H9 media
log10 of IC90: 0.84
//
molecule: CCOC(=O)CSc1nsc(SCC(=O)OCC)c1C#N
tested target: M. tuberculosis H37Rv growth inhibition, 7H9 media
log10 of IC90: 1.13
